The reported numbers originate from ChEMBL document CHEMBL5154765.

Tested on: Aspergillus flavus
assayProcedure: Antifungal activity against fluconazole resistant Aspergillus flavus ATCC 16870 assessed as reduction in fungal growth incubated for 24 hrs by two fold broth dilution method
Type: functional
Measured MIC by item
readout: MIC (mg/L)

>>> recordedmeasurement("O=C(/C=C/C(=O)N1CCCC12Cc1ccccc1NC2=O)Nc1ccccc1[N+](=O)[O-] (stereo not drawn)")
64
>>> recordedmeasurement("O=C(/C=C/C(=O)N1CCCC12Cc1ccccc1NC2=O)Nc1ccc(Cl)c(F)c1 (stereo not drawn)")
32

* * *

System: Candida albicans
assayProcedure: Antifungal activity against Candida albicans ATCC 76615 assessed as polyoxin B MIC incubated for 72 hrs by checker board assay
Assay type: functional
Entries and their measured MIC follow.
readout: MIC (µg/mL)

>>> recordedmeasurement("O=C(/C=C/C(=O)N1CCCC12Cc1ccccc1NC2=O)Nc1ccc(Cl)c(F)c1 (centres undefined)")
8
>>> recordedmeasurement("O=C(/C=C/C(=O)N1CCCC12Cc1ccccc1NC2=O)Nc1ccccc1[N+](=O)[O-] (centres undefined)")
4
>>> recordedmeasurement("O=C(/C=C/C(=O)N1CCCC12Cc1ccccc1NC2=O)Nc1ccc(F)cc1 (centres undefined)")
4
>>> recordedmeasurement("O=C(/C=C/C(=O)N1CCCC12Cc1ccccc1NC2=O)Nc1cccc([N+](=O)[O-])c1 (centres undefined)")
4

* * *

assayProcedure: Inhibition of Candida tropicalis ATCC750 chitin synthase using UDP-GlcNAc as substrate incubated for 1 hr by microplate reader analysis
pIC50: −log10 of the molar value.
The entries below are paired with their reported pIC50.
readout: pIC50

>>> recordedmeasurement("O=C(/C=C/C(=O)N1CCCC12Cc1ccccc1NC2=O)Nc1ccccc1[N+](=O)[O-] (stereo not drawn)")
3.96
>>> recordedmeasurement("O=C(/C=C/C(=O)N1CCCC12Cc1ccccc1NC2=O)Nc1ccc(Cl)c(F)c1 (stereo not drawn)")
3.96
>>> recordedmeasurement("Cc1ccc(NC(=O)/C=C/C(=O)N2CCCC23Cc2ccccc2NC3=O)cc1 (stereo not drawn)")
2.97
>>> recordedmeasurement("O=C(/C=C/C(=O)N1CCCC12Cc1ccccc1NC2=O)Nc1ccc(Cl)cc1Cl (stereo not drawn)")
3.77
>>> recordedmeasurement("Cc1ccccc1NC(=O)/C=C/C(=O)N1CCCC12Cc1ccccc1NC2=O (stereo not drawn)")
3.01
>>> recordedmeasurement("O=C(/C=C/C(=O)N1CCCC12Cc1ccccc1NC2=O)Nc1ccc(Br)cc1 (stereo not drawn)")
3.28
>>> recordedmeasurement("COc1ccc(NC(=O)/C=C/C(=O)N2CCCC23Cc2ccccc2NC3=O)cc1 (stereo not drawn)")
3.23
>>> recordedmeasurement("COc1cccc(NC(=O)/C=C/C(=O)N2CCCC23Cc2ccccc2NC3=O)c1 (stereo not drawn)")
3.11
>>> recordedmeasurement("O=C(/C=C/C(=O)N1CCCC12Cc1ccccc1NC2=O)Nc1ccc(Cl)cc1 (stereo not drawn)")
3.77
>>> recordedmeasurement("O=C(/C=C/C(=O)N1CCCC12Cc1ccccc1NC2=O)Nc1ccccc1Cl (stereo not drawn)")
3.92
>>> recordedmeasurement("NC(=O)OC[C@H](O)[C@@H](O)[C@H](N)C(=O)N[C@H](C(=O)O)[C@H]1O[C@@H](n2cc(CO)c(=O)[nH]c2=O)[C@H](O)[C@@H]1O [POLYOXIN B]")
4.05
>>> recordedmeasurement("COc1ccccc1NC(=O)/C=C/C(=O)N1CCCC12Cc1ccccc1NC2=O (stereo not drawn)")
3.52
>>> recordedmeasurement("O=C(/C=C/C(=O)N1CCCC12Cc1ccccc1NC2=O)Nc1ccc(F)cc1 (stereo not drawn)")
3.89
>>> recordedmeasurement("Cc1cc(C)cc(NC(=O)/C=C/C(=O)N2CCCC23Cc2ccccc2NC3=O)c1 (stereo not drawn)")
3.00
>>> recordedmeasurement("COc1cc(NC(=O)/C=C/C(=O)N2CCCC23Cc2ccccc2NC3=O)c(OC)cc1Cl (stereo not drawn)")
3.70
>>> recordedmeasurement("Cc1cccc(NC(=O)/C=C/C(=O)N2CCCC23Cc2ccccc2NC3=O)c1 (stereo not drawn)")
2.92
>>> recordedmeasurement("O=C(/C=C/C(=O)N1CCCC12Cc1ccccc1NC2=O)Nc1cccc([N+](=O)[O-])c1 (stereo not drawn)")
4.00
>>> recordedmeasurement("O=C(/C=C/C(=O)N1CCCC12Cc1ccccc1NC2=O)Nc1cccc2ccccc12 (stereo not drawn)")
3.24
